Experiment: AUC (0 to 24 hrs) in Beagle dog at 0.10 mg/kg, po by cassette assay
Format: ADME, organism-based, Canis lupus familiaris
Design: time < 24 hr, dose 0.1 mg/kg, route oral
Conditions: plasma, 0.1 mg/kg
readout.label: AUC(0-t) at 24 h (ng·h/mL)

CS(=O)(=O)NC(=O)c1ccc(-c2ccc(CCNC[C@H](O)c3cnccc3N)cc2)cc1OC1CCCCC1.Cl.Cl    26.7
CS(=O)(=O)NC(=O)c1ccc(-c2ccc(CCNC[C@H](O)c3ccccc3)cc2)cc1NC1CCCCC1.Cl.Cl    33.5
CC(C)Sc1cc(-c2ccc(CCNC[C@H](O)c3cccnc3)cc2)ccc1C(=O)NS(C)(=O)=O.Cl.Cl    50.9
CS(=O)(=O)NC(=O)c1ccc(-c2ccc(CCNC[C@H](O)c3ccccc3)cc2)cc1SC1CCCCC1.Cl    56.3

A: CC(C)Cc1cc(-c2ccc(CCNC[C@H](O)c3ccccc3)cc2)ccc1C(=O)NS(C)(=O)=O.Cl
B: CS(=O)(=O)NC(=O)c1ccc(-c2ccc(CCNC[C@H](O)c3cccnc3)cc2)cc1NC1CCCCC1.Cl.Cl.Cl
C: CC(C)Nc1cc(-c2ccc(CCNC[C@H](O)c3cccnc3)cc2)ccc1C(=O)NS(C)(=O)=O.Cl.Cl.Cl
D: CS(=O)(=O)NC(=O)c1ccc(-c2ccc(CCNC[C@H](O)c3ccccc3)cc2)cc1OC1CCCCC1.Cl
E: CS(=O)(=O)NC(=O)c1ccc(-c2ccc(CCNC[C@H](O)c3ccccc3)cc2)cc1C1CCCCC1.Cl
Rank order required: AUC(0-t) at 24 h, descending. Give the labels in the order specified.
D, A, E, B, C
